assay: CCTE_Shafer_MEA_dev_active_electrodes_number: CCTE's Neural Network Formation Assay for Number of Active Electrodes, Shafer Lab (AID 2284040);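 as to AC50: potency for loss of active electrodes versus DMSO so lower counts are hits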
Inconclusive results are not listed. Activity calls are given as the source filed them. The calls were made as follows: active = hit-call score of the fitted dose curve at least 0.9, where 1 is the maximum; inconclusive = response in the unintended direction; inactive = score below 0.9.
measured.quantity: AC50

Recorded AC50, per entry:
>  <compound>
CC(C)(C)C(O)(CCc1ccc(Cl)cc1)Cn1cncn1 (configuration not stated)

>  <AC50>
5.02 µM (active)

$$$$
>  <compound>
C1=Cc2cccc3cccc1c23

>  <AC50>
inactive

$$$$
>  <compound>
[O-][Cl+]O

>  <AC50>
inactive

$$$$
>  <compound>
CCCCOC(=O)c1ccccc1C(=O)OCc1ccccc1

>  <AC50>
22.7 µM (active)

$$$$
>  <compound>
Clc1ccc(C(c2ccc(Cl)cc2)C(Cl)Cl)cc1

>  <AC50>
4.66 µM (active)

$$$$
>  <compound>
CN(C)[C@@H]1C(=O)C(C(N)=O)=C(O)[C@@]2(O)C(=O)C3=C(O)c4c(O)cccc4[C@@](C)(O)[C@H]3C[C@@H]12

>  <AC50>
inactive

$$$$

Can you look up the measured AC50 of ClC1=C(Cl)C2(Cl)C3C(Cl)C=CC3C1(Cl)C2(Cl)Cl (configuration not stated) for me? 4.27 µM (active)

====

read-out: Monocyte Chemoattractant Protein-1 (MCP1), CCL2 (gene 6347); test: BSK_CASM3C_MCP1: BioMAP Diversity Plus: CASM3C Assay for Monocyte Chemoattractant Protein-1 (MCP1) Biomarker Activity (AID 2283046); details: primary human coronary artery smooth muscle cells; actives raise or lower the signal;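 also: MCP-1 level quantified by ELISA 24 h after dosing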
Calls of active or inactive are those of the source. Rule for the calls: active = hit-call score of the fitted dose curve at least 0.9, where 1 is the maximum; inactive = score below 0.9.
measured.quantity: AC50

>  <compound>
Clc1ccccc1Cl

>  <AC50>
inactive

$$$$
>  <compound>
ClC1=C(Cl)[C@]2(Cl)[C@H]3[C@H]([C@@H]4C=C[C@H]3C4)[C@@]1(Cl)C2(Cl)Cl

>  <AC50>
34 µM (active)

$$$$
>  <compound>
Clc1ccc(C(c2ccc(Cl)cc2)C(Cl)Cl)cc1

>  <AC50>
32.1 µM (active)

$$$$
>  <compound>
[O-][Cl+]O

>  <AC50>
inactive

$$$$
>  <compound>
CC(O)CCO (stereo not given)

>  <AC50>
inactive

$$$$
>  <compound>
COC(=O)c1ccccc1N

>  <AC50>
inactive

$$$$
>  <compound>
c1ccc(N=Nc2ccccc2)cc1

>  <AC50>
inactive

$$$$
>  <compound>
CN(C)C(=O)Nc1ccc(Cl)cc1

>  <AC50>
inactive

$$$$

Please give AC50, item by item, for the list that follows.
1. COP(=S)(OC)SCN1C(=O)c2ccccc2C1=O
2. [As]#[In]
3. O=C(Oc1ccc(Br)cc1)N1CCN2CCC1CC2
4. CCCCCCCCn1sccc1=O
5. ClC1=C(Cl)C2(Cl)C3C(Cl)C=CC3C1(Cl)C2(Cl)Cl (stereo not given)
6. C[N+](C)(C)CC1CO1 (stereo not given)
7. CN(C)c1ccc(C(=O)c2ccc(N(C)C)cc2)cc1

["inactive", "inactive", "inactive", "15 µM (active)", "33.6 µM (active)", "inactive", "inactive"]

====

test: CEETOX_H295R_CORTIC: CeeTox H295R High-throughput Steroidogenesis Assay for Corticosterone (CORTIC) (AID 2283437); settings: actives raise or lower the signal;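 also: corticosterone secreted into medium quantified by mass spectrometry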;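 as to AC50: human H295R adrenal cells prestimulated with forskolin before chemical exposure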
The source made the active and inactive calls. Rule for the calls: active = hit-call score of the fitted dose curve at least 0.9, where 1 is the maximum; inactive = score below 0.9.
measured.quantity: AC50

Recorded AC50, per entry:
>  <compound>
CCC(C)c1ccc(O)cc1 (stereo not given)

>  <result>
inactive

$$$$
>  <compound>
CC(C)(C)C(O)(CCc1ccc(Cl)cc1)Cn1cncn1 (stereo not given)

>  <result>
inactive

$$$$
>  <compound>
Nc1ccc(Cc2ccc(N)cc2)cc1

>  <result>
inactive

$$$$
>  <compound>
Cc1ccc(N=C=O)cc1N=C=O

>  <result>
inactive

$$$$
>  <compound>
Cn1cc(-c2ccccc2)c(=O)c(-c2cccc(C(F)(F)F)c2)c1

>  <result>
inactive

$$$$

Please give AC50, item by item, for the list that follows.
1. CCCCCOC(=O)c1ccccc1C(=O)OCCCCC
2. COP(=S)(OC)SCN1C(=O)c2ccccc2C1=O
3. CNC(=O)Oc1cccc2c1OC(C)(C)C2
4. CCOc1cccc(C2(N3CCN(c4ccccc4)CC3)CCC(C)CC2)c1 (stereo not given)
5. CCCCCCCCCCCCCN1CC(C)OC(C)C1 (stereo not given)

1: inactive; 2: inactive; 3: inactive; 4: 23.6 µM (active); 5: inactive
